biological target: panel of 442 kinases (Homo sapiens); construct: purchased KINOMEscan; type: binding; set-up: unit: % Ctrl; conditions: Compound Concentration 10 µM
RECORDED_ENDPOINT: KINOMEscan: AKT1
Give bare numbers.

Guide cases for KINOMEscan: AKT1, answers given:
COc1cc(C(=O)N2CCC(N3CCN(C)CC3)CC2)ccc1Nc1ncc2c(n1)N(C)c1ccccc1C(=O)N2C [15 (LRRK2-IN-1)] : 79
COc1cc(C(=O)N2CCC(N3CCN(C)CC3)CC2)ccc1Nc1ncc2c(n1)N1CCc3cccc(c31)C(=O)N2C [Compound 24] : 90
COc1cc(C(=O)N2CCC(N3CCN(C)CC3)CC2)ccc1Nc1ncc2c(n1)N(C1CCCC1)c1ccccc1C(=O)N2C [Compound 25] : 100

Attention now shifts to the item below.
-- ask Please state recorded KINOMEscan: AKT1 (tested on panel of 442 kinases (Homo sapiens)) of CCOc1cc(C(=O)N2CCC(N3CCN(C)CC3)CC2)ccc1Nc1ncc2c(n1)N(C1CCCC1)c1ccccc1C(=O)N2C [Compound 26]
-- reply 100

* * *

Kindly state KINOMEscan: PAK3 for each of the entries shown.
biological target: panel of 442 kinases (Homo sapiens, UniProt O75914); construct: purchased KINOMEscan; format: binding; conditions: Compound Concentration 10 µM
Sequence (O75914 whole entry): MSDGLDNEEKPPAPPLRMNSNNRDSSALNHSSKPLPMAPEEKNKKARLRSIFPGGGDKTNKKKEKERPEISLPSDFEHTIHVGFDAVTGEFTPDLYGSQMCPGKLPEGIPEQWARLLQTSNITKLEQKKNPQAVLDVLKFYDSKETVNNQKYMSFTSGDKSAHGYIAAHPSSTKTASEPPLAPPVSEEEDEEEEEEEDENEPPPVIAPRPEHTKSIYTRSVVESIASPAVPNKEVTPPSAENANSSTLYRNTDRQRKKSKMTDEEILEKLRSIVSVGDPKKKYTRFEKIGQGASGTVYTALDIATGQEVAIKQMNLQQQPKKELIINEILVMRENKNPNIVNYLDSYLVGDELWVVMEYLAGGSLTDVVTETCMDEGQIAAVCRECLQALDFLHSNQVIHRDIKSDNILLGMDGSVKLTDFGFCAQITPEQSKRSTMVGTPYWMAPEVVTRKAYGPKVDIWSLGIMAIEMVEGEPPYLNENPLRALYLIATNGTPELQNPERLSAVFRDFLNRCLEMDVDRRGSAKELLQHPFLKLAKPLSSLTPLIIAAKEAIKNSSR
Numbers only.

COc1cc(C(=O)N2CCC(N3CCN(C)CC3)CC2)ccc1Nc1ncc2c(n1)N1CCc3cccc(c31)C(=O)N2C : 80
COc1cc(C(=O)N2CCC(N3CCN(C)CC3)CC2)ccc1Nc1ncc2c(n1)N(C)c1ccccc1C(=O)N2C : 83

# batch: return KINOMEscan: PAK3 for each of the 2 compounds below
1. COc1cc(C(=O)N2CCC(N3CCN(C)CC3)CC2)ccc1Nc1ncc2c(n1)N(C1CCCC1)c1ccccc1C(=O)N2C
2. CCOc1cc(C(=O)N2CCC(N3CCN(C)CC3)CC2)ccc1Nc1ncc2c(n1)N(C1CCCC1)c1ccccc1C(=O)N2C

-- reply
69
95

* * *

biological target: panel of 442 kinases (Homo sapiens); construct: purchased KINOMEscan; type: binding; details: Compound Concentration 10 µM
RECORDED_ENDPOINT: KINOMEscan: PKN2
Answers are plain numbers.

COc1cc(C(=O)N2CCC(N3CCN(C)CC3)CC2)ccc1Nc1ncc2c(n1)N1CCc3cccc(c31)C(=O)N2C : 82
COc1cc(C(=O)N2CCC(N3CCN(C)CC3)CC2)ccc1Nc1ncc2c(n1)N(C)c1ccccc1C(=O)N2C : 95
CCOc1cc(C(=O)N2CCC(N3CCN(C)CC3)CC2)ccc1Nc1ncc2c(n1)N(C1CCCC1)c1ccccc1C(=O)N2C : 100

Attention now shifts to the item below.
-- ask Which KINOMEscan: PKN2 is reported for this molecule? "COc1cc(C(=O)N2CCC(N3CCN(C)CC3)CC2)ccc1Nc1ncc2c(n1)N(C1CCCC1)c1ccccc1C(=O)N2C"
-- reply 100

* * *

Kindly state KINOMEscan: DAPK1 for each of the entries shown.
molecular target: panel of 442 kinases (Homo sapiens); construct: purchased KINOMEscan; format: binding; conditions: Compound Concentration 10 µM
One number for each entry.

Guide cases for KINOMEscan: DAPK1, answers given:
COc1cc(C(=O)N2CCC(N3CCN(C)CC3)CC2)ccc1Nc1ncc2c(n1)N1CCc3cccc(c31)C(=O)N2C [Compound 24] : 19
CCOc1cc(C(=O)N2CCC(N3CCN(C)CC3)CC2)ccc1Nc1ncc2c(n1)N(C1CCCC1)c1ccccc1C(=O)N2C [Compound 26] : 100
COc1cc(C(=O)N2CCC(N3CCN(C)CC3)CC2)ccc1Nc1ncc2c(n1)N(C1CCCC1)c1ccccc1C(=O)N2C [Compound 25] : 77

Attention now shifts to the item below.
-- ask Which KINOMEscan: DAPK1 is reported for this compound? COc1cc(C(=O)N2CCC(N3CCN(C)CC3)CC2)ccc1Nc1ncc2c(n1)N(C)c1ccccc1C(=O)N2C [15 (LRRK2-IN-1)]
-- reply 73
